Entries and their solubility at 5 min
Assay: In vitro solubility in buffer at different pH (HPLC)
Details: pH 10.2, aqueous buffer, kinetic from dmso stock

- MOLECULE: "C[Si]1(C)CCC(NC(=O)c2cc3c(F)cc(F)cc3[nH]2)CC1 [Compound (i)]"
  solubility at 5 min / µM: 9.03
- MOLECULE: "C[Si]1(C)CCN(NC(=O)c2cc3c(F)cc(F)cc3[nH]2)CC1 [Compound (j)]"
  solubility at 5 min / µM: 1.1
- MOLECULE: "C[Si]1(C)CCN(NC(=O)c2cc3c(Cl)cc(Cl)cc3[nH]2)CC1 [Compound (f)]"
  solubility at 5 min / µM: 2.7
- MOLECULE: "C[Si]1(C)CCN(NC(=O)c2cc3c(Cl)cc(Cl)cc3[nH]2)CC1.Cl [Compound (m)]"
  solubility at 5 min / µM: 2.46

---

Each entry below carries its reported solubility at 5 min.
Assay: physchem
Conditions: pH 1.2, simulated gastric fluid, kinetic from dmso stock

- SMILES: "CC1(C)CCN(NC(=O)c2cc3c(Cl)cc(Cl)cc3[nH]2)CC1.Cl"
  solubility at 5 min [µM]: 42.6
- SMILES: "CC1(C)CCN(NC(=O)c2cc3c(F)cc(F)cc3[nH]2)CC1"
  solubility at 5 min [µM]: 49.6
- SMILES: "CC1(C)CCN(NC(=O)c2cc3c(Cl)cc(Cl)cc3[nH]2)CC1"
  solubility at 5 min [µM]: 41.1

---

Experiment: In vitro solubility in buffer at different pH (HPLC)
Conditions: pH 7.4, aqueous buffer, kinetic from dmso stock

- COMPOUND: "C[Si]1(C)CCN(NC(=O)c2cc3c(F)cc(F)cc3[nH]2)CC1 [Compound (j)]"
  READING_UNIT: "µM"
  solubility at 5 min: 1
- COMPOUND: "C[Si]1(C)CCN(NC(=O)c2cc3c(Cl)cc(Cl)cc3[nH]2)CC1.Cl [Compound (m)]"
  READING_UNIT: "µM"
  solubility at 5 min: 2.73
- COMPOUND: "C[Si]1(C)CCN(NC(=O)c2cc3c(Cl)cc(Cl)cc3[nH]2)CC1 [Compound (f)]"
  READING_UNIT: "µM"
  solubility at 5 min: 2.57

---

Assay: In vitro solubility in buffer at different pH (HPLC)
Conditions: pH 1.2, simulated gastric fluid, kinetic from dmso stock
solubility at 5 min: recorded values
OBSERVABLE: solubility at 5 min

- SMILES: "C[Si]1(C)CCN(NC(=O)c2cc3c(Cl)cc(Cl)cc3[nH]2)CC1.Cl"
  EXPERIMENTAL_VALUE: "38.6 µM"
- SMILES: "C[Si]1(C)CCN(NC(=O)c2cc3c(Cl)cc(Cl)cc3[nH]2)CC1"
  EXPERIMENTAL_VALUE: "40.4 µM"
- SMILES: "C[Si]1(C)CCN(NC(=O)c2cc3c(F)cc(F)cc3[nH]2)CC1"
  EXPERIMENTAL_VALUE: "49.7 µM"

---

Test: In vitro solubility in buffer at different pH (HPLC)
Conditions: pH 4.5, aqueous buffer, kinetic from dmso stock
Reported solubility at 5 min values for the following molecules.
OBSERVABLE: solubility at 5 min (µM)

- MOLECULE: "C[Si]1(C)CCN(NC(=O)c2cc3c(F)cc(F)cc3[nH]2)CC1 [Compound (j)]"
  EXPERIMENTAL_VALUE: 1.01
- MOLECULE: "C[Si]1(C)CCN(NC(=O)c2cc3c(Cl)cc(Cl)cc3[nH]2)CC1.Cl [Compound (m)]"
  EXPERIMENTAL_VALUE: 2.55
- MOLECULE: "C[Si]1(C)CCN(NC(=O)c2cc3c(Cl)cc(Cl)cc3[nH]2)CC1 [Compound (f)]"
  EXPERIMENTAL_VALUE: 2.57

---

Test: physchem
Conditions: pH 7.4, aqueous buffer, kinetic from dmso stock

- COMPOUND: "CC1(C)CCN(NC(=O)c2cc3c(Cl)cc(Cl)cc3[nH]2)CC1 [Compound (h)]"
  solubility at 5 min: "6.32 µM"
- COMPOUND: "CC1(C)CCN(NC(=O)c2cc3c(F)cc(F)cc3[nH]2)CC1 [Compound (l)]"
  solubility at 5 min: "29.4 µM"
- COMPOUND: "CC1(C)CCN(NC(=O)c2cc3c(Cl)cc(Cl)cc3[nH]2)CC1.Cl [Compound (n)]"
  solubility at 5 min: "10.6 µM"

---

Assay: In vitro solubility in buffer at different pH (HPLC)
Conditions: pH 2.2, aqueous buffer, kinetic from dmso stock
OBSERVABLE: solubility at 5 min

- SMILES: "C[Si]1(C)CCN(NC(=O)c2cc3c(Cl)cc(Cl)cc3[nH]2)CC1"
  EXPERIMENTAL_VALUE: "26.3 µM"
- SMILES: "C[Si]1(C)CCN(NC(=O)c2cc3c(Cl)cc(Cl)cc3[nH]2)CC1.Cl"
  EXPERIMENTAL_VALUE: "28.4 µM"
- SMILES: "C[Si]1(C)CCN(NC(=O)c2cc3c(F)cc(F)cc3[nH]2)CC1"
  EXPERIMENTAL_VALUE: "31.3 µM"

The values you see were collected from patent US11718633B2.
